Assay: Cytotoxicity against human HepG2(2.2.15) cells by modified-MTT assay
Assay type: cell-based
value.kind: CC50

Lab note: measured CC50 of C[C@H](Cn1cnc2c(N)ncnc21)OCP(=O)(O)O [TENOFOVIR ANHYDROUS] was > 1.74 mM

Lab note: measured CC50 of CCOc1ccccc1/C=C/C(=O)O[C@H]1CC[C@@]2(C)C(=CC[C@]3(O)[C@@H]2C[C@@H](OC(=O)/C=C(\C)C(C)C)[C@@]2(C)[C@]3(O)CC[C@@]2(O)C(C)=O)C1 was > 1.73 mM

Lab note: measured CC50 of CC(=O)[C@]1(O)CC[C@@]2(O)[C@]1(C)[C@H](OC(=O)/C=C(\C)C(C)C)C[C@@H]1[C@@]3(C)CC[C@H](OC(=O)/C=C/c4ccccc4F)CC3=CC[C@]12O was 0.523 mM
